- System: Enterovirus A71
- PROTOCOL_DESCRIPTION: Antiviral activity against Enterovirus 71 infected in human RD cells assessed as cell viability after 3 days by MTS assay
- Type: functional, organism-based
- ASSAY_SETUP: Enterovirus A, 72 h
The entries below come with measured EC50 values attached.
Hi! Could you send only the number? It should be in µM, unit omitted.

SMILES_STR | EC50 (µM)
OC[C@H]1O[C@@H](n2cnc3c(NCOCc4ccccc4)ncnc32)[C@H](O)[C@@H]1O | 3
CC(C)=CCNc1ncnc2c1ncn2[C@@H]1O[C@H](CO)[C@@H](O)[C@H]1O | 1
OC[C@H]1O[C@@H](n2cnc3c(NCCOc4ccccc4)ncnc32)[C@H](O)[C@@H]1O | 4.3

Consider the additional compound presented here.
// query EC50 value for entry c1ccc(CNc2ncnc3nc[nH]c23)cc1 0.42

---

# pEC50 listing for each entry below
- Test system: Enterovirus A71
- PROTOCOL_DESCRIPTION: Antiviral activity against Enterovirus 71 isolate TW/2429/04 infected in human RD cells assessed as cell viability after 3 days by MTS assay
- Assay type: functional, organism-based
- ASSAY_SETUP: Enterovirus A, isolate TW/2429/04, RD, 72 h
On this scale, pEC50 is minus log10 of a concentration expressed in M (mol/L).

SMILES_STR | SUBJECT_OF_TEST | pEC50
OC[C@H]1O[C@@H](n2cnc3c(NC/C=C/c4ccccc4)ncnc32)[C@H](O)[C@@H]1O | Enterovirus A71 | 5.94

Continue with the next compound.
Can you look up the measured pEC50 of OC[C@H]1O[C@@H](n2cnc3c(NCCc4ccccc4)ncnc32)[C@H](O)[C@@H]1O for me? 5.43

---

- Test system: Enterovirus A71
- PROTOCOL_DESCRIPTION: Antiviral activity against Enterovirus 71 infected in human RD cells assessed as cell viability after 3 days by MTS assay
- Type: functional, organism-based
- ASSAY_SETUP: Enterovirus A, 72 h
Entries and their measured EC50 follow.
Kindly answer with a numeric value in µM, unit omitted.

A selection of reference data follows.
SMILES_STR | MEASUREMENT
C=CCC#CCNc1ncnc2c1ncn2[C@@H]1O[C@H](CO)[C@@H](O)[C@H]1O | 4.9
OC[C@H]1O[C@@H](n2cnc3c(NCCCc4ccccc4)ncnc32)[C@H](O)[C@@H]1O | 1.8
O=C(Nc1ncnc2c1ncn2[C@@H]1O[C@H](CO)[C@@H](O)[C@H]1O)c1ccccc1 | 12

API: the following record is the query input.
Report EC50 for OC[C@H]1O[C@@H](n2cnc3c(NC/C=C/c4ccccc4)ncnc32)[C@H](O)[C@@H]1O please. 0.66

---

- PROTOCOL_DESCRIPTION: Cytotoxicity against human RD cells
- Assay type: cell-based
READOUT_LABEL: log10 CC50 (log10 of the value in µM)
Units before log transform: µM; reported quantity: CC50; transform: log10.

Previously resolved entries follow.
SMILES_STR | MEASUREMENT
OC[C@H]1O[C@@H](n2cnc3c(OCCc4ccccc4)ncnc32)[C@H](O)[C@@H]1O | 0.93
c1ccc(CNc2ncnc3nc[nH]c23)cc1 | 2.74
OC[C@H]1O[C@@H](n2cnc3c(NCc4cn(COCc5ccccc5)nn4)ncnc32)[C@H](O)[C@@H]1O | 2.06

Could you share which log10 CC50 value was measured for OCCn1cc(CNc2ncnc3c2ncn3[C@@H]2O[C@H](CO)[C@@H](O)[C@H]2O)nn1 ? 2.50

Any idea what log10 CC50 was measured for OC[C@H]1O[C@@H](n2cnc3c(OCc4ccccc4)ncnc32)[C@H](O)[C@@H]1O ? 2.28

Look up log10 CC50 for this compound: CC(C)=CCNc1ncnc2c1ncn2[C@@H]1O[C@H](CO)[C@@H](O)[C@H]1O 0.76

Field request: log10 CC50 | item: OC[C@H]1O[C@@H](n2cnc3c(NCCc4ccccc4)ncnc32)[C@H](O)[C@@H]1O 2.34

Which log10 CC50 value belongs to OC[C@H]1O[C@@H](n2cnc3c(Nc4ccccc4)ncnc32)[C@H](O)[C@@H]1O ? 2.57

Name the recorded log10 CC50 for OC[C@H]1O[C@@H](n2cnc3c(NC/C=C/c4ccccc4)ncnc32)[C@H](O)[C@@H]1O . 2.63

---

- Tested on: Enterovirus A71
- PROTOCOL_DESCRIPTION: Antiviral activity against Enterovirus 71 clinical isolate TW/70902/08 infected in human RD cells assessed as cell viability after 3 days by MTS assay
- Type: functional, organism-based
- ASSAY_SETUP: Enterovirus A, isolate TW/70902/08, RD, 72 h
READOUT_LABEL: EC50
The answer consists of two parts: a number and, after it, its unit.

SMILES_STR | EC50
OC[C@H]1O[C@@H](n2cnc3c(NCCc4ccccc4)ncnc32)[C@H](O)[C@@H]1O | 8.3 µM

Attention now shifts to the item below.
For Enterovirus A71, provide EC50 of OC[C@H]1O[C@@H](n2cnc3c(NC/C=C/c4ccccc4)ncnc32)[C@H](O)[C@@H]1O please. 2.5 µM

---

Some molecules, each annotated with its measured pEC50.
- Tested on: Enterovirus A71
- PROTOCOL_DESCRIPTION: Antiviral activity against Enterovirus 71 infected in human RD cells assessed as cell viability after 3 days by MTS assay
- Type: functional, organism-based
- ASSAY_SETUP: Enterovirus A, 72 h
To interpret pEC50, take it as minus log10 of a concentration measured in moles per litre.

Use the examples below as a reference point.
MOLECULE | READOUT_LABEL | MEASUREMENT
OC[C@H]1O[C@@H](n2cnc3c(OCc4ccccc4)ncnc32)[C@H](O)[C@@H]1O | pEC50 | 5.29
OC[C@H]1O[C@@H](n2cnc3c(NCc4ccccc4)ncnc32)[C@H](O)[C@@H]1O [N6-BENZYLADENOSINE] | pEC50 | 6.55

Please turn your attention to the following entry.
Return reported pEC50; argument: C[C@H]1O[C@@H](n2cnc3c(NCc4ccccc4)ncnc32)[C@H](O)[C@@H]1O 5.17

---

- PROTOCOL_DESCRIPTION: Cytotoxicity against human RD cells
- Type: cell-based
# if measured CC50 < 100 µM: YES  # else: NO

Known results for molecules:
MOLECULE | CLASS_NAME
CC(C)=CCNc1ncnc2nc[nH]c12 | NO
OC[C@H]1O[C@@H](n2cnc3c(NCCOc4ccccc4)ncnc32)[C@H](O)[C@@H]1O | NO
OC[C@H]1O[C@@H](n2cnc3c(NCc4ccco4)ncnc32)[C@H](O)[C@@H]1O [KINETIN RIBOSIDE] | YES
OC[C@H]1O[C@@H](n2cnc3c(OCCCc4ccccc4)ncnc32)[C@H](O)[C@@H]1O | NO
OC[C@H]1O[C@@H](n2cnc3c(NCc4ccccc4)ncnc32)[C@H](O)[C@@H]1O | YES

Please let me know if OC[C@H]1O[C@@H](n2cnc3c(NCc4cn(Cc5ccccc5)nn4)ncnc32)[C@H](O)[C@@H]1O shows CC50 below 100 µM. NO

State whether 100 µM exceeds CC50 recorded for OC[C@H]1O[C@@H](n2cnc3c(NCC#Cc4ccccc4)ncnc32)[C@H](O)[C@@H]1O . YES

Does Cn1cc(CNc2ncnc3c2ncn3[C@@H]2O[C@H](CO)[C@@H](O)[C@H]2O)nn1 have CC50 strictly under 100 µM? NO

Just wondering, is CC50 of C[C@H]1O[C@@H](n2cnc3c(NCCc4ccccc4)ncnc32)[C@H](O)[C@@H]1O below 100 µM? NO

Please state whether CC50 is below 100 µM for OC[C@H]1O[C@@H](n2cnc3c(NCOCc4ccccc4)ncnc32)[C@H](O)[C@@H]1O NO

Field: below-cutoff. Rule: recorded CC50 strictly less than 100 µM. Subject: OC[C@H]1O[C@@H](n2cnc3c(NCCCc4ccccc4)ncnc32)[C@H](O)[C@@H]1O NO

Please determine if C[C@H]1O[C@@H](n2cnc3c(NCc4ccccc4)ncnc32)[C@H](O)[C@@H]1O is below 100 µM in terms of CC50. NO

---

- Test system: Enterovirus A71
- PROTOCOL_DESCRIPTION: Antiviral activity against Enterovirus 71 infected in human RD cells assessed as cell viability after 3 days by MTS assay
- Format: functional, organism-based
- ASSAY_SETUP: Enterovirus A, 72 h
pEC50: −log10 of the molar value.
Catalogue of compounds with associated pEC50

The cases that follow already have their pEC50 on record.
COMPOUND | READOUT_LABEL | MEASUREMENT
C[C@H]1O[C@@H](n2cnc3c(NCCc4ccccc4)ncnc32)[C@H](O)[C@@H]1O | pEC50 | < 3.55
OC[C@H]1O[C@@H](n2cnc3c(NCC#Cc4ccccc4)ncnc32)[C@H](O)[C@@H]1O | pEC50 | 6.24
OC[C@H]1O[C@@H](n2cnc3c(OCCCc4ccccc4)ncnc32)[C@H](O)[C@@H]1O | pEC50 | < 3.74
OC[C@H]1O[C@@H](n2cnc3c(NCCc4ccccc4)ncnc32)[C@H](O)[C@@H]1O | pEC50 | 5.74
OC[C@H]1O[C@@H](n2cnc3c(Nc4ccccc4)ncnc32)[C@H](O)[C@@H]1O [N6-PHENYLADENOSINE] | pEC50 | < 3.54

Suppose we examine the compound CC(C)=CCNc1ncnc2nc[nH]c12 ; what pEC50 value has been reported? < 3.49

Sample OC[C@H]1O[C@@H](n2cnc3c(NCc4ccco4)ncnc32)[C@H](O)[C@@H]1O [KINETIN RIBOSIDE] — what was its pEC50? 5.85

Given the entry OC[C@H]1O[C@@H](n2cnc3c(NCc4ccccc4)ncnc32)C[C@@H]1O , report its measured pEC50. < 3.84

GET /values?readout=pEC50&item= OC[C@H]1O[C@@H](n2cnc3c(NCc4cn(COCc5ccccc5)nn4)ncnc32)[C@H](O)[C@@H]1O < 3.94

Give its pEC50 value. Item: OC[C@H]1O[C@@H](n2cnc3c(NCCCCc4ccccc4)ncnc32)[C@H](O)[C@@H]1O < 3.60

So what's the measured pEC50 for this one? OC[C@H]1O[C@@H](n2cnc3c(OCCc4ccccc4)ncnc32)[C@H](O)[C@@H]1O < 5.07
